Where these numbers come from: patent US4713381A

Test system: platelet aggregation
Assay: Effects on platelet aggregation in vitro (ADP-induced, rat platelet-rich plasma, Born type aggregometer)
Format: cell-based, rats
Details: 2 min; rat platelet-rich plasma, 37° C., 2 minutes; 10^-5 M adenosine diphosphate; read-out: 50% inhibitory concentrations (IC50)
Exam item: assign class 1 to entries whose IC50 is below 1 µg/mL and class 0 to entries at or above 1 µg/mL. Note that a value of exactly 1 µg/mL receives class 0.

Challenge: Here's an entry: Cc1nc2sccn2c1C1=NNC(=O)CO1 . Is its IC50 below 1 µg/mL?
Response given: class 1

Challenge: Here's an entry: Clc1ccccc1CN1CCc2sccc2C1 [Ticlopidine, ticlopidine, reference compound] . Is its IC50 below 1 µg/mL?
Response given: class 0

Challenge: Here's an entry: Cc1c(C2=NNC(=O)CO2)sc2nccn12 . Is its IC50 below 1 µg/mL?
Response given: class 1

Challenge: Here's an entry: O=C1COC(c2ccc3nccn3c2)=NN1 . Is its IC50 below 1 µg/mL?
Response given: class 1

Challenge: Here's an entry: Cc1ccc2nc(C)c(C3=NNC(=O)CO3)n2c1 . Is its IC50 below 1 µg/mL?
Response given: class 0

Challenge: Here's an entry: Cc1nc2c(C)cccn2c1C1=NNC(=O)CO1 . Is its IC50 below 1 µg/mL?
Response given: class 0
